- testSystem: CDK2 (human) (UniProt P24941)
- measurementNotes: Cell-Based Assay
- statedConditions: hct 116
Hi there, I'd appreciate the recorded IC50 for every entry that follows.

Q) Report IC50, nothing else, for this compound: O=[N+]([O-])c1ccc2c(c1)C(c1ccccc1Cl)=Nc1c(n[nH]c1-c1ccc(-n3cccc3)cc1)N2
A) 10 to 30 µM

Q) Supply recorded IC50 for NNC(=O)c1[nH]nc2c1N=C(c1ccccc1Cl)c1cc([N+](=O)[O-])ccc1N2 here.
A) 1.1 to 9.99 µM

Q) Look up and state reported IC50 for CCc1[nH]nc2c1N=C(c1ccccc1Cl)c1cc([N+](=O)[O-])ccc1N2
A) 0.01 to 1 µM

Q) Report IC50 for O=[N+]([O-])c1ccc2c(c1)C(c1ccccc1Cl)=Nc1c(n[nH]c1-c1ccc[nH]1)N2
A) 1.1 to 9.99 µM

Q) State its IC50 for this compound: Cc1[nH]nc2c1N=C(c1ccccc1Cl)c1cc([N+](=O)[O-])ccc1N2
A) 0.01 to 1 µM

Q) Give me measured IC50, please, for this compound: c1ccc(C2=Nc3c[nH]nc3Nc3ccccc32)cc1
A) 10 to 30 µM

Q) Dear colleague, please send me the reported IC50 for O=[N+]([O-])c1ccc2c(c1)C(c1ccccc1Cl)=Nc1c(n[nH]c1-c1cccc3ccccc13)N2 when you can.
A) 10 to 30 µM

Q) Report measured IC50; entry is Cc1ccccc1-c1[nH]nc2c1N=C(c1ccccc1Cl)c1cc([N+](=O)[O-])ccc1N2
A) 10 to 30 µM

Q) Let me know recorded IC50 for O=[N+]([O-])c1ccc2c(c1)C(c1ccccc1Cl)=Nc1c(n[nH]c1-c1cncc3ccccc13)N2 , thanks.
A) 10 to 30 µM
